Every entry's value here was drawn from PubChem BioAssay (NCI).

# System: NCI-H322M lung
# Test: NCI-60 one-dose screen, 48 h
# Recorded conditions: 10 µM unless noted
Compounds without any hit were thinned out: in the full panel of roughly 83,000, 20% have a hit. Active and inactive are the calls of the source. How the source made its calls: active means growth percent below 10; inactive means the rest.
The reply should name one outcome from active, inactive

Answered examples (5):
Compound	Target or test system	Group
COc1cc(/C=N/NC(=O)c2ccc(C)nc2)cc(OC)c1OC	NCI-H322M lung	inactive
O=C(N/N=C/[C@H](O)[C@H](O)[C@H](O)CO)c1ccc(NC(=O)c2cccnc2)cc1	NCI-H322M lung	inactive
O=C(Nc1ccc(F)cc1F)c1cc(F)ccc1O	NCI-H322M lung	active
Cn1cc(C(=O)c2nc(-c3cn(C)c4ccc(F)cc34)no2)c2cc(F)ccc21	NCI-H322M lung	inactive
O=c1c2cc(C(F)(F)F)ccc2sc2c(NCCCNCCO)nc3ccccc3c12	NCI-H322M lung	inactive

With those in mind, consider the next compound.
What classification did [O-][n+]1c2ccccc2[n+]([O-])c2c3ccccc3[nH]c21 end up with in this test?
inactive

====

# Test system: OVCAR-3 ovarian
# Test: NCI-60 one-dose screen, 48 h
# Recorded conditions: 10 µM unless noted
About 83,000 compounds went through this panel and 20% of them were active in at least one assay; those are over-represented in the sample as a whole. Activity calls are given as the source filed them. How the source made its calls: active means growth percent below 10; inactive means the rest.
The reply should name one outcome from True = active, False = inactive

Compound	Group
CCCCCCn1c(-c2ccc(C(=O)O/N=C(\N)c3ccc4c(c3)OCO4)cc2)nc(-c2ccccc2)c1-c1ccccc1	False
Cc1onc2c(-c3ccccc3)n[nH]c(=O)c12	False
COc1ccc(N)c(N)c1	False
COc1cccc(-c2nc(-c3ccc(NC(=O)c4ccccc4)cc3)[nH]c2-c2ccnc(Br)c2)c1	False
C=C1C(=O)O[C@H]2[C@H]1CC/C(COC(=O)CCSSCCC(=O)OC/C1=C/CC[C@@]3(C)O[C@H]3[C@H]3OC(=O)C(=C)[C@@H]3CC1)=C\CC[C@@]1(C)O[C@@H]21	True
COc1cccc(Oc2ccccc2NC(=O)CNC(=O)c2cccc3ccccc23)c1	True
Cc1cc2nc3cc(C)c(N)cc3[n+](-c3ccccc3)c2cc1N	False
COC(=O)Nc1ccc(-c2nc(-c3cccc(OC)c3)c(-c3ccnc(Br)c3)[nH]2)cc1	False
COc1cccc(Cc2nn3cc(-c4ccccc4)nc3s2)c1	False
COc1ccc(-c2[nH]c3ccc(OC)cc3c2/C=C(\C#N)S(=O)(=O)c2ccccc2)cc1	True

What classification did COc1nc2ccccc2cc1-c1nc2c(cnn2-c2ccc(Br)cc2)c(=O)[nH]1 end up with in this test?
True

What classification did CC(=O)OC[C@H]1OC(Sc2sc(C(=O)c3ccc(Cl)cc3)c(N)c2-c2nc3ccccc3s2)[C@H](OC(C)=O)[C@@H](OC(C)=O)[C@@H]1OC(C)=O (stereo partly drawn) end up with in this test?
False

What classification did O=c1c2cc(F)ccc2sc2c(NCCN3CCOCC3)nc3ccccc3c12 end up with in this test?
False

What classification did CCCCCCCCCCCCCCCCCCOc1ccc(CC(=O)OCC[N+](C)(C)C)cc1 end up with in this test?
False

What classification did Cc1c(C(=O)/C=C/Nc2c(Cl)cc(S(N)(=O)=O)cc2Cl)sc2nc3ccccc3n12 end up with in this test?
False

What classification did O=c1c2cccc(Cl)c2sc2c(NCCCNCCO)nc3ccccc3c12 end up with in this test?
True

What classification did CCCCn1c(=O)c(-c2cc(-c3ccc(Cl)cc3)nc(-c3ccc(Cl)cc3)c2)cc2cc(Cl)ccc21 end up with in this test?
False

What classification did Cc1ccc(-c2nc(N3CCN(C(=O)Nc4ccc(Cl)c(C(F)(F)F)c4)CC3)c3ccccc3n2)cc1 end up with in this test?
False
